Recorded values, source patent US11261187B2.

experiment: Absorbance and emission maxima of near IR fluorescent probes (Table 1); assay type: physicochemical
test-readout: Abs. Max

In plain terms, Cc1nn(-c2ccc(C(N)=O)c(NCCCOCCOCCOCCOCCOCCCNC(=O)c3ccc(C(=C\C=C4\N(CCCCS(=O)(=O)O)c5ccccc5C4(C)C)/C=C/C4=[N+](CCCCS(=O)(=O)[O-])c5ccccc5C4(C)C)cc3)c2)c2c1C(=O)CC(C)(C)C2 [Compound 102] has a documented Abs. Max of 643

====

Listed next: entries and their corresponding Abs. Max.
assay: Absorbance and emission maxima of near IR fluorescent probes (Table 1); assay type: physicochemical
# respond with the number and nothing more

Look over these answered cases.
compound	Abs. Max
Cc1nn(-c2ccc(C(N)=O)c(NCCCOCCOCCOCCOCCOCCCNCc3ccc(C4=C(/C=C/C5=[N+](CCCCS(=O)(=O)[O-])c6ccc(S(=O)(=O)O)cc6C5(C)C)CCC/C4=C\C=C4\N(CCCCS(=O)(=O)O)c5ccc(S(=O)(=O)O)cc5C4(C)C)cc3)c2)c2c1C(=O)CC(C)(C)C2 [Compound 108]	775
Cc1nn(-c2ccc(C(N)=O)c(NCCCOCCOCCOCCOCCOCCCNCc3ccc(C4=C(/C=C/C5=[N+](CCCCS(=O)(=O)[O-])c6ccccc6C5(C)C)CCC/C4=C\C=C4\N(CCCCS(=O)(=O)O)c5ccccc5C4(C)C)cc3)c2)c2c1C(=O)CC(C)(C)C2 [Compound 105]	766

In plain terms, Cc1nn(-c2ccc(C(N)=O)c(NCCCOCCOCCOCCOCCOCCCNCc3ccc(C4=C(/C=C/C5=[N+](CCCCS(=O)(=O)[O-])c6ccc7ccccc7c6C5(C)C)CCC/C4=C\C=C4\N(CCCCS(=O)(=O)O)c5ccc6ccccc6c5C4(C)C)cc3)c2)c2c1C(=O)CC(C)(C)C2 [Compound 111] has a documented Abs. Max of 803

In plain terms, Cc1nn(-c2ccc(C(N)=O)c(NCCCOCCOCCOCCOCCOCCCNC(=O)c3ccc(C4=C(/C=C/C5=[N+](CCCCS(=O)(=O)[O-])c6ccccc6C5(C)C)CCC/C4=C\C=C4\N(CCCCS(=O)(=O)O)c5ccccc5C4(C)C)cc3)c2)c2c1C(=O)CC(C)(C)C2 [Compound 106] has a documented Abs. Max of 766

In plain terms, Cc1nn(-c2ccc(C(N)=O)c(NCCCOCCOCCOCCOCCOCCCNC(=O)c3ccc(C4=C(/C=C/C5=[N+](CCCCS(=O)(=O)[O-])c6ccc7ccccc7c6C5(C)C)CCC/C4=C\C=C4\N(CCCCS(=O)(=O)O)c5ccc6ccccc6c5C4(C)C)cc3)c2)c2c1C(=O)CC(C)(C)C2 [Compound 112] has a documented Abs. Max of 803

====

assay: Absorbance and emission maxima of near IR fluorescent probes (Table 1); assay type: physicochemical
// label = Fulfilled if Em. Max is not less than 800, otherwise Not fulfilled

The examples below pair each entry with its known result.
compound	label
Cc1nn(-c2ccc(C(N)=O)c(NCCCOCCOCCOCCOCCOCCCNC(=O)c3ccc(C4=C(/C=C/C5=[N+](CCCCS(=O)(=O)[O-])c6ccc7ccccc7c6C5(C)C)CCC/C4=C\C=C4\N(CCCCS(=O)(=O)O)c5ccc6ccccc6c5C4(C)C)cc3)c2)c2c1C(=O)CC(C)(C)C2 [Compound 112]	Fulfilled
Cc1nn(-c2ccc(C(N)=O)c(NCCCOCCOCCOCCOCCOCCCNC(=O)c3ccc(C(=C\C=C4\N(CCCCS(=O)(=O)O)c5ccccc5C4(C)C)/C=C/C4=[N+](CCCCS(=O)(=O)[O-])c5ccccc5C4(C)C)cc3)c2)c2c1C(=O)CC(C)(C)C2 [Compound 102]	Not fulfilled

Continue with the compound presented below.
Task: Entry Cc1nn(-c2ccc(C(N)=O)c(NCCCOCCOCCOCCOCCOCCCNCc3ccc(C4=C(/C=C/C5=[N+](CCCCS(=O)(=O)[O-])c6ccc7ccccc7c6C5(C)C)CCC/C4=C\C=C4\N(CCCCS(=O)(=O)O)c5ccc6ccccc6c5C4(C)C)cc3)c2)c2c1C(=O)CC(C)(C)C2 [Compound 111] : is its Em. Max no less than 800?
Output: Fulfilled
